The measured values listed here are drawn from patent US20260184782A1.

Listed binders paired with reported EC50
- Tested on: T1, human TIGIT-Fc (human, UniProt Q495A1 22-141, limits assumed)
- T1 construct: not shown: Fc; not described
- T1 sequence (looked up): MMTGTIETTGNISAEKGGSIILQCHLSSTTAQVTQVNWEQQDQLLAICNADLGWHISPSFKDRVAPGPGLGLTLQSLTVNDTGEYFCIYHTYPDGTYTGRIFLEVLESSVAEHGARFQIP
- Assay name: CD155 competition ELISA, titration
Quick reminder: number only, in nM, skip the unit.

TIGIT-SC65 (Fc fusion, VHH-Fc) VHH: EVQLVESGGGLVQPGGSLRLSCAASGFTFGNYDMGWFRQAPGKEREFVAAITGSGRSTYYADSVKGRFTISADNSKNTAYLQMNSLKPEDTAVYYCARGRIAASGTKVYWYFDLWGQGTLVTVSS    4.09

# ---- query binder ----
Notebook: TIGIT-SC152 (Fc fusion, VHH-Fc) VHH: EVQLVESGGGLVQPGGNLRLSCAASGSTFSKHHAMGWFRQAPGKEREFVAGIIRSGTLKAYADSVKGRFTISADNSKNTAYLQMNSLKPEDTAVYYCTRGRAARHNLWYFDLWGQGTLVTVSS , EC50 read as 13.4
